Procedure summary: qHTS of pediatric cancer cell lines to identify multiple opportunities for drug repurposing: Primary screen for BT-37 cells (AID 1347094);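 note: plate controls were DMSO for no effect and bortezomib for full effect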
Condition info: BT-37 viability, CellTiter-Glo luminescence, 48 h; series mostly up to 57.3 µM
Records with an inconclusive call do not appear. Activity calls are given as the source filed them. Calls come from the whole dose curve; as a rule, active = well fitted cell-killing curve with a large enough effect; inconclusive = small, poorly fitted or top-dose-only effect; inactive = flat fitted curve, though single readings scatter.
// allowed return values: 1 (active), 0 (inactive)

Write down the call the test reported for this compound. Item: "CC[C@]1(O)CC[C@H]2[C@@H]3CCC4=CCCC[C@@H]4[C@H]3CC[C@@]21C"
0

Write down the call the test reported for this compound. Item: "CCC(=O)O[C@H]1CC[C@H]2[C@@H]3CCC4=CC(=O)CC[C@]4(C)[C@H]3CC[C@]12C"
0

Write down the call the test reported for this compound. Item: "C[C@H]1C(=O)O[C@@H]2CCN3CC=C(COC(=O)[C@](C)(O)[C@]1(C)O)[C@H]23"
0

Write down the call the test reported for this compound. Item: CC(Cc1ccccc1)NCCCCl (configuration not stated)
0

Write down the call the test reported for this compound. Item: "O=c1n(Cl)c(=O)n(Cl)c(=O)n1Cl"
0

Write down the call the test reported for this compound. Item: "COc1ccc(CN2CCNCC2)c(OC)c1OC"
0

Write down the call the test reported for this compound. Item: "C[N+](C)(C)CCOC(=O)C(O)(c1ccccc1)c1ccccc1"
0

Write down the call the test reported for this compound. Item: CC(C(O)c1ccccc1)N(C)C/C=C/c1ccccc1 (configuration not stated)
0

Write down the call the test reported for this compound. Item: Nc1ccccc1C(=O)OCC(O)CO (configuration not stated)
0

Write down the call the test reported for this compound. Item: "CCc1ccc(C2CCNCC2)cc1"
0

Write down the call the test reported for this compound. Item: "Nc1ccc(Cl)cc1C(=O)c1ccccc1F"
0

Write down the call the test reported for this compound. Item: CCN1CCCC1CNC(=O)C(O)(c1ccccc1)c1ccccc1 (configuration not stated)
0

Write down the call the test reported for this compound. Item: "OC(O)C(Cl)(Cl)Cl"
0

Write down the call the test reported for this compound. Item: "Cc1nnc2n1-c1sc(CCC(=O)N3CCOCC3)cc1C(c1ccccc1Cl)=NC2"
0

Write down the call the test reported for this compound. Item: "CCC(=O)C(CCN(C)C)(c1ccccc1)c1ccccc1"
0

Write down the call the test reported for this compound. Item: "O=C(O)c1nn(Cc2ccc(Cl)cc2Cl)c2ccccc12"
0

Write down the call the test reported for this compound. Item: CCCCC1C(=O)NC(=O)N(C2CCCCC2)C1=O (configuration not stated)
0

====

Condition info: Ebola virus entry assay, ratio channel
Activity calls are given as the source filed them.
// allowed return values: active, inactive

Some solved entries appear below for comparison.
[[record]]
compound = "CCOC(=O)OCC/C(SC(=O)OCC)=C(\\C)N(C=O)Cc1cnc(C)nc1N"
assigned_category = "inactive"

[[record]]
compound = "CN(C(=O)c1c(O)c2ccccc2n(C)c1=O)c1ccccc1"
assigned_category = "inactive"

[[record]]
compound = "CC(=C(CCOC(=O)C(C)C)SSC(CCOC(=O)C(C)C)=C(C)N(C=O)Cc1cnc(C)nc1N)N(C=O)Cc1cnc(C)nc1N"
assigned_category = "inactive"


Next up:
Write down the call the test reported for this compound. Item: COc1cc2c(cc1OC)C(C(C(=O)N(CCc1ccc(OC)c(OC)c1OC)CCc1ccc(OC)c(OC)c1OC)c1ccccc1)=NCC2 (centres undefined)
active
